Biological target: T1, recombinant His-tagged human IFNAR-1-ECD protein (human, UniProt P17181 28-436)
T1 construct: extracellular domain; the Biacore text says His-tagged human IFNAR-1-ECD; also called His-tagged IFNAR-1; hIFNAR-1 protein; not shown: His tag
T1 sequence (looked up): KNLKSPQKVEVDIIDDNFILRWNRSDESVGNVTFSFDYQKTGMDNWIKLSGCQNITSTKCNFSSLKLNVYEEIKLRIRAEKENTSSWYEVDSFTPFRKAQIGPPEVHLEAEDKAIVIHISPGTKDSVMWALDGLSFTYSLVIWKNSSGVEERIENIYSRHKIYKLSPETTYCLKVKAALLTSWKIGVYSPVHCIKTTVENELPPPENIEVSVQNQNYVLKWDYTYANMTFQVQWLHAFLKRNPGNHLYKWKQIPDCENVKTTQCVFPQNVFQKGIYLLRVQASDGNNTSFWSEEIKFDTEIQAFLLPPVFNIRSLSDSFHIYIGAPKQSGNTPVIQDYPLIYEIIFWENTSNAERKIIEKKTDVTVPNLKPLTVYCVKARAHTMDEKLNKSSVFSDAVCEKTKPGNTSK
Experiment: ELISA, coated His-tagged IFNAR-1
Description: This example tested the binding properties of the anti-IFNAR-1 mouse antibodies to the human IFNAR-1 proteins by ELISA assay. In short, His-tagged IFNAR-1 was coated at 0.5 μg/ml overnight and then blocked by 5% BSA in PBS. Serial diluted anti-IFNAR-1 antibodies were incubated with the coated antigen for 1 h at room temperature. […] The plates were developed with TMB substrate and analyzed by spectrophotometer at OD 450-630 nm.
binders and their reported EC50
# value in nM; strip the unit string

260H8 (antibody, V domains shown, Hybridoma-derived monoclonal antibody) VH: EVQLQESGPGLAKPSQTLSLTCSVTGYSITSDYWNWIRKFPGNKLEYMGYISYSGSIYYNPSLKSRISITRDTSKNQYYLQLNSVTNEDTATYYCARSGGMYYFDYWGQGTTLTVSS VL: DIQMTQSPASLSASVGETVTITCRASGNIHNYLAWYQQKQGKSPQLLVYNAKTLEDGVPSRFSGSGSGTQYSLKINSLQPEDFGSYYCQHFWSIPPTFGSGTKLEIK
0.055

Report measured EC50; entry is 293H10 (antibody, V domains shown, Hybridoma-derived monoclonal antibody) VH: EVQLQESGPGLAKPSQTLSLTCSVTGYSITSDYWNWIRKFPGNKLEYMGYISYSGNTDYNPSLKSRFSITRDTSKNQFYLQLNSVTTEDTATYYCARSEGMYFFDYWGQGTTLTVSS VL: DIQMTQSPASLSASVGETVSITCRASGNIHNYLAWYHQKQGKSPQLLVYNAKTLADGVPSRFSGSGSGTQYSLKINSLQPEDFGSYYCQHFWSTPPTFGSGTKLEIK
0.097

Give recorded EC50. 4D8 (antibody, V domains shown, Hybridoma-derived monoclonal antibody; Chimeric human IgG1 Fc versions were also made) VH: EVRLQQSGAELVQPGASVKLSCTGFGFNIKDYYMHWVKQRTEQGLEWIGRIDPEDAETKYAPKFQGQATITADTSSNTAYVQVSSLSSEDTAVYYCARGGNFYVMDYWGQGTSVTVSS VL: DIVMTQSQKFMSTSVGDRVSVTCKASQNVGTNVVWYQQKPGQSPKVLIYSASYRYSGVPDRFTGSGSGTDFTLIISNVQSEDLAEYFCQQKNSYPYTFGGGTKLEIK
0.067
